Experiment: Pharmacokinetic study, single oral dose
Assay type: in vivo, male, Swiss Albino mice
Conditions: male, Swiss Albino, mouse, plasma, po; 11.5 mg/kg p.o., single dose
Procedure: The pharmacokinetic profile was assessed in male, Swiss Albino mice in a discrete study using a single per oral dose of Netoglitazone (11.5 mg/kg, 30 μmoles/kg) formulated as a solution in 10% NMP/90% Solutol (as a 20% v/v solution in PBS). The dosing concentration was 2.3 mg/mL with a dosing volume of 5.0 mL/kg. Data were derived from the average of 3 animals per timepoint (terminal sampling). […] Samples were analysed using UHPLC with TOF mass spectrometry using electrospray ionisation.
readout-name: Tmax (h)
Give the quantity in h, number only.

Report measured Tmax; entry is O=C1NC(=O)C(Cc2ccc3cc(OCc4ccccc4F)ccc3c2)S1 (stereo not shown) [Netoglitazone]
6

====

Assay: Brain microdialysis time course study (striatum)
Format: in vivo, male C57BL/6 mice
Details: male, C57BL/6, mouse, brain / plasma; 15 mg/kg po; terminal samples shortly after 6 hours; read-out: Brain:plasma ratio
readout-name: Kp at 6 h
Give the figure by itself; no unit, no explanation.

Report measured Kp at 6 h; entry is O=C1NC(=O)C(Cc2ccc3cc(OCc4ccccc4F)ccc3c2)S1 (stereo not shown)
0.8

====

Assay: Brain microdialysis time course study (striatum)
Assay type: in vivo, male C57BL/6 mice
Settings: male, C57BL/6, mouse; 15 mg/kg po; whole brain; terminal sample shortly after 6 hours; read-out: Concentration in brain
readout-name: concentration at 6 h (ng/g)
Give the quantity in ng/g, number only.

Report measured concentration at 6 h; entry is O=C1NC(=O)C(Cc2ccc3cc(OCc4ccccc4F)ccc3c2)S1 (stereo not shown)
10300
